Values compiled from patent US20060154859A1.

Examples of binders with documented pKd follow.
- testSystem: T1, recombinant chicken leptin binding domain (chLBD) (chicken)
- T1 construct: The 1:1 complex with leptin has a predicted mass of 40.5 kDa, so chLBD is about 24.5 kDa
- assayProtocol: SPR (Biacore 3000), leptin mutant amine-coupled to CM5 chip, soluble chLBD as analyte, 25 C, 1:1 Langmuir fit, mean of 2 experiments
pKd: −log10 of the molar value.

binder: ovine leptin L39A/D40A mutant (ligand, also called L39A/D40A (ovine)) VSIRKVQDDTKTLIKTIVTRINDISHTQSVSSKQRVTGAAFIPGLHPLLSLSKMDQTLAIYQQILASLPSRNVIQISNDLENLRDLLHLLAASKSCPLPQVRALESLESLGVVLEASLYSTEVVALSRLQGSLQDMLRQLDLSPGC
pKd: 7.62
//
binder: ovine leptin L39A/D40A/F41A mutant (ligand, also called L39A/D40A/F41A (ovine)) VSIRKVQDDTKTLIKTIVTRINDISHTQSVSSKQRVTGAAAIPGLHPLLSLSKMDQTLAIYQQILASLPSRNVIQISNDLENLRDLLHLLAASKSCPLPQVRALESLESLGVVLEASLYSTEVVALSRLQGSLQDMLRQLDLSPGC
pKd: 7.86
